Recorded MFI FACS (pre-Myc incubation), one value per entry.
- tested.system: T1, mouse P2X7 (mouse, UniProt Q9Z1M0 1-595)
- T1 construct: on transfected CHO or Hek293 cells, or endogenous on Yac-1 cells; also called mP2X7; mouse purinoceptor P2X7
- T1 sequence: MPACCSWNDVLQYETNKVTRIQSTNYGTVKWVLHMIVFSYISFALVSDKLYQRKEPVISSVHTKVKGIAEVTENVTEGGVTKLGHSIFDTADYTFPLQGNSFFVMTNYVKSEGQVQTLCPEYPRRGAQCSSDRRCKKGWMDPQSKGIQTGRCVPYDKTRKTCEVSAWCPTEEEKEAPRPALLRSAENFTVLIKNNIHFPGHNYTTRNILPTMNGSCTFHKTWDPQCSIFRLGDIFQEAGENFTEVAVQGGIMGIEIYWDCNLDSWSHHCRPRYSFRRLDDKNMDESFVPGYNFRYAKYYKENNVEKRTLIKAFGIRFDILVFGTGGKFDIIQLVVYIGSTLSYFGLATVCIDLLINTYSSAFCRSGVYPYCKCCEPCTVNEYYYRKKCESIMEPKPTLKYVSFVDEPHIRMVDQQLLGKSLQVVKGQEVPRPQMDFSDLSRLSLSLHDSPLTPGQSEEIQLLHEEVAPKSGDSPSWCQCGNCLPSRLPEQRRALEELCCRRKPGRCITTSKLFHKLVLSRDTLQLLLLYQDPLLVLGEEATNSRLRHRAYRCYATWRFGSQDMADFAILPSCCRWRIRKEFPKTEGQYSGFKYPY
- procedure.summary: flow cytometry, periplasmic extract pre-incubated with anti-myc-FITC, on mP2X7-Hek293 cells;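 note: periplasmic extract diluted 10-fold and premixed 45 min at 4 °C with FITC anti-myc antibody, giving pseudo-bivalent Nanobodies, before binding to the cells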
Quick reminder: number only, in MFI, skip the unit.

>  <binder>
P2X7PMP8A11 (VHH, family 5, 2; on phage or c-myc/His6-tagged in assays) VHH: EVQLVESGGGLVQAGGSLRLSCAASGSFFRVNNMAWYRQAPGKQRELVADITRGDRTNYADSVNGRFTISRDNVRNTVYLQMDGLKPEDTAVYYCYARIELGVLVPRDYWGQGTQVTVSS

>  <result.units>
MFI

>  <MFI FACS (pre-Myc incubation)>
17

$$$$

Q) Determine its reported MFI FACS (pre-Myc incubation): P2X7PMP18C1 (VHH, family 25; on phage or c-myc/His6-tagged in assays) VHH: EVQLVESGGDLVQPGGSLRLSCVASGFALEEHAIGWFRQAPGKEREGVSLSSYLGAAYYATSVKGRFTISRDNAKNTVTLQMNSLKPEDTAVYYCARGHFTYDDGRITIRSVDYWGKGTLVTVSS
A) 63
